We begin with a simple list: items and their reported pIC50.
Biological target: UniProt:Q5BJF2
Assay: Sigma 2 binding assay (3H-DTG radioligand, cell membrane)
Conditions: sigma-2R cell membrane, 2 hours at room temperature, read-out: Sigma 2 Binding Assay Summary IC50
Procedure: The pharmacodynamic test methods employed in this embodiment are those known to those skilled in the art; the sigma-2 receptor inhibitory activity assay kit employed in this embodiment is commercially available to those skilled in the art. sigmal/sigma-2 receptor affinity activity test: In a 96-well plate, eight 4-fold dilutions of the test and reference compounds were made, and 1 μL of each compound was added to each well, and the wells were rearranged. […]
pIC50: −log10 of the molar value.

As a guide, the following entries are already answered.
compound: CCCS(=O)(=NC(=O)CC)c1ccc2c(c1)CN(C(C)(C)CCc1ccc(O)c(OC(C)(C)C)c1)C2 (stereo not shown) [Compound 8]
pIC50: < 6.30
//
compound: CCCCS(=O)(=NC(C)=O)c1ccc2c(c1)CN(C(C)(C)CCc1ccc(O)c(OC(C)(C)C)c1)C2 (stereo not shown) [Compound 10]
pIC50: < 6.30
//
compound: CCC(=O)N=S(C)(=O)c1ccc2c(c1)CN(C(C)(C)CCc1ccc(O)c(OC(C)(C)C)c1)C2 (stereo not shown) [Compound 2]
pIC50: < 7.00

Recorded pIC50 (compound CC(C)(C)Oc1cc(CCC(C)(C)N2Cc3ccc(S(C)(=N)=O)cc3C2)ccc1O (stereo not shown) [Compound 16] ): > 7.00

// recorded pIC50 for CCC(=O)N=S(=O)(CC)c1ccc2c(c1)CN(C(C)(C)CCc1ccc(O)c(OC(C)(C)C)c1)C2 (stereo not shown) [Compound 5] : < 7.00

Noted for CCCC(=O)N=S(=O)(CC)c1ccc2c(c1)CN(C(C)(C)CCc1ccc(O)c(OC(C)(C)C)c1)C2 (stereo not shown) [Compound 6] : its pIC50 reads < 6.30

Reported pIC50 of CCS(=O)(=NC(C)=O)c1ccc2c(c1)CN(C(C)(C)CCc1ccc(O)c(OC(C)(C)C)c1)C2 (stereo not shown) [Compound 4] : < 7.00

###

pIC50: −log10 of the molar value.
sigma-2 receptor (Homo sapiens, UniProt Q5BJF2): reported pIC50 for various molecules.
Sequence (Q5BJF2 whole entry, species assumed): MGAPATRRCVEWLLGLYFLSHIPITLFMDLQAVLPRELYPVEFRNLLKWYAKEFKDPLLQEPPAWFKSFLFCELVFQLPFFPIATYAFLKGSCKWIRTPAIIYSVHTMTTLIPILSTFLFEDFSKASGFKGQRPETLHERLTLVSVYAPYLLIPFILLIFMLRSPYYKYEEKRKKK

Solved cases (3 shown):
molecule: CC(=O)N=S(=O)(CCCF)c1ccc2c(c1)CN(C(C)(C)CCc1ccc(O)c(OC(C)(C)C)c1)C2 (stereo not shown)
pIC50: < 6.30

molecule: CC(=O)N=S(C)(=O)c1ccc2c(c1)CN(C(C)(C)CCc1ccc(O)c(OC(C)(C)C)c1)C2 (stereo not shown)
pIC50: < 7.00

molecule: CCS(=N)(=O)c1ccc2c(c1)CN(C(C)(C)CCc1ccc(O)c(OC(C)(C)C)c1)C2 (stereo not shown)
pIC50: > 7.00

Please fill in: pIC50 reported for CC(=O)N=S(=O)(CF)c1ccc2c(c1)CN(C(C)(C)CCc1ccc(O)c(OC(C)(C)C)c1)C2 (stereo not shown) = < 7.00

###

Data export: pIC50 values recorded with UniProtKB Q99720.
Sequence (Q99720 whole entry): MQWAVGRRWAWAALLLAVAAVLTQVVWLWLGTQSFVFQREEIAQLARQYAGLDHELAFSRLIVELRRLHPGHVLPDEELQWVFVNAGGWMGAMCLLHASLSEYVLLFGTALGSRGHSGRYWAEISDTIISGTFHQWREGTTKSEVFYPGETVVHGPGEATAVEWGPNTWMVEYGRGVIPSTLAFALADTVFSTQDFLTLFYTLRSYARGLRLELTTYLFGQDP
pIC50: −log10 of the molar value.

molecule: CCCCS(=O)(=NC(C)=O)c1ccc2c(c1)CN(C(C)(C)CCc1ccc(O)c(OC(C)(C)C)c1)C2 (stereo not drawn)
target-under-test: UniProtKB Q99720
measurement-name: pIC50
value-reported: < 5.30

Measured pIC50 of CC(=O)N=S(=O)(CF)c1ccc2c(c1)CN(C(C)(C)CCc1ccc(O)c(OC(C)(C)C)c1)C2 (stereo not drawn) : < 6.00

# pIC50 (molecule: CCCS(=N)(=O)c1ccc2c(c1)CN(C(C)(C)CCc1ccc(O)c(OC(C)(C)C)c1)C2 (stereo not drawn) ) is < 5.30
